# METHOD: Quantitative High-Throughput drug screen in 47 multiple myeloma cell lines against the NCATS MIPE library collection: VP6_DJ cell viability assay (AID 1919867); note: potency is the fitted concentration of half-maximal effect; nearly all actives have a fitted effect of over 40% in size
# STATED CONDITIONS: ATP luminescence, 48 h; series mostly up to 45.8 µM
Results filed as inconclusive are left out. Activity calls are given as the source filed them. Calls come from the whole dose curve; as a rule, active = well fitted cell-killing curve with a large enough effect; inconclusive = small, poorly fitted or top-dose-only effect, or effect the other way; inactive = no such curve, though single readings can be large or run the other way.
// reported Potency per item

Look over these answered cases.
1) Cc1cc(OCCCS(C)(=O)=O)cc(C)c1-c1cccc(COc2ccc3c(c2)OC[C@H]3CC(=O)O)c1 | 2.35 µM (active)
2) C[C@H](c1ccc(F)cc1CCCC(=O)O)N(c1cc(F)ccc1F)S(=O)(=O)c1ccc(Cl)cc1 | 3.72 µM (active)
3) COc1cc2c(cc1Cc1cccc(Cl)c1F)c(=O)c(C(=O)O)cn2[C@H](CO)C(C)C | 10.5 µM (active)
4) COc1ccc2c(c1)c(C1=C(c3c[nH]c4ccccc34)C(=O)NC1=O)cn2CCCN(C)C | 20.9 µM (active)
5) COc1ccc2nc3cc(Cl)ccc3c(Nc3cc(CN4CCCC4)c(O)c(CN4CCCC4)c3)c2n1 | 9.35 µM (active)

Returns the measured Potency for the input compound. Input: OC1CCC(Nc2ncc3nc(Nc4c(F)cc(F)cc4F)n([C@@H]4CCOC4)c3n2)CC1 (stereo partly drawn)
11.8 µM (active)

Lookup `COc1cc([C@H]2Oc3cc([C@H]4Oc5cc(O)cc(O)c5C(=O)[C@H]4O)ccc3O[C@H]2CO)ccc1O`
11.8 µM (active)
